Biological target: HLA-A*02:01 (Homo sapiens, UniProt P04439, D140Y/D185E/D98H/E176V/E277Q/G131W/G231S/I119V/I121R/I166T/I218V/L300P/L318F/N151K/N90K/P208A/P217A/Q86G/Q94H/R138H/R169H/T345S)
Experiment: MHC binding assay (UV-ligand exchange, ELISA of exchange yield)
Settings: binding to HLA-A*02:01, UV-ligand exchange
metric-name: Peptide exchange (MHC class I binding score, peptide exchange yield)

Observe how each entry below is paired with its result.
[
  {
    "substance": "430 (HLYSSIEHLTT; listed as Homo sapiens) [compound 430]",
    "endpoint-value": "“+++” (≥50 = +++)"
  },
  {
    "substance": "334 (TLTKVLVAL; listed as Homo sapiens) [compound 334]",
    "endpoint-value": "“+++” (≥50 = +++)"
  },
  {
    "substance": "128 (YLFDDPLSAV; listed as Homo sapiens) [compound 128]",
    "endpoint-value": "“++” (≥20% = ++)"
  },
  {
    "substance": "376 (AMFESSQNVLL; listed as Homo sapiens) [compound 376]",
    "endpoint-value": "“++” (≥20% = ++)"
  },
  {
    "substance": "170 (RLQETLSAA; listed as Homo sapiens) [compound 170]",
    "endpoint-value": "“+++” (≥50 = +++)"
  }
]

stdin: Answer with the recorded Peptide exchange (MHC class I binding score, peptide exchange yield) of 583 (ILANDGVLLAA; listed as Homo sapiens) [compound 583] only.
stdout: “+++” (≥50 = +++)

stdin: Answer with the recorded Peptide exchange (MHC class I binding score, peptide exchange yield) of 558 (GLLENIPRV; listed as Homo sapiens) [compound 558] only.
stdout: “+++” (≥50 = +++)

stdin: Answer with the recorded Peptide exchange (MHC class I binding score, peptide exchange yield) of 133 (KVLSNIHTV; listed as Homo sapiens) [compound 133] only.
stdout: “++” (≥20% = ++)

---

Molecular target: HLA-A*02:01 (Homo sapiens, UniProt P04439, D140Y/D185E/D98H/E176V/E277Q/G131W/G231S/I119V/I121R/I166T/I218V/L300P/L318F/N151K/N90K/P208A/P217A/Q86G/Q94H/R138H/R169H/T345S)
Experiment: MHC binding assay (UV-ligand exchange, ELISA of exchange yield)
Conditions: binding to HLA-A*02:01, UV-ligand exchange
Text: Candidate peptides for T cell based therapies according to the present invention were further tested for their MHC binding capacity (affinity). The individual peptide-MHC complexes were produced by UV-ligand exchange, where a UV-sensitive peptide is cleaved upon UV-irradiation, and exchanged with the peptide of interest as analyzed. Only peptide candidates that can effectively bind and stabilize the peptide-receptive MHC molecules prevent dissociation of the MHC complexes. […]
metric-name: Peptide exchange (MHC class I binding score, peptide exchange yield)

Observe how each entry below is paired with its result.
[
  {
    "substance": "214 (FLLDLDPLLL; listed as Homo sapiens) [compound 214]",
    "endpoint-value": "“+++” (≥50 = +++)"
  },
  {
    "substance": "546 (VMIAGKVAVV; listed as Homo sapiens) [compound 546]",
    "endpoint-value": "“+++” (≥50 = +++)"
  },
  {
    "substance": "455 (SLLKEPQKVQL; listed as Homo sapiens) [compound 455]",
    "endpoint-value": "“++” (≥20% = ++)"
  },
  {
    "substance": "216 (NLWEDPYYL; listed as Homo sapiens) [compound 216]",
    "endpoint-value": "“+++” (≥50 = +++)"
  },
  {
    "substance": "178 (ALTEIAFVV; listed as Homo sapiens) [compound 178]",
    "endpoint-value": "“++++” (≥75% = ++++)"
  },
  {
    "substance": "11 (KIFEMLEGV; listed as Homo sapiens) [compound 11]",
    "endpoint-value": "“+++” (≥50 = +++)"
  },
  {
    "substance": "281 (ILRESTEEL; listed as Homo sapiens) [compound 281]",
    "endpoint-value": "“+++” (≥50 = +++)"
  },
  {
    "substance": "305 (SIANFSEFYV; listed as Homo sapiens) [compound 305]",
    "endpoint-value": "“++++” (≥75% = ++++)"
  }
]

stdin: Answer with the recorded Peptide exchange (MHC class I binding score, peptide exchange yield) of 187 (RQISIRGIVGV; listed as Homo sapiens) [compound 187] only.
stdout: “+++” (≥50 = +++)

stdin: Answer with the recorded Peptide exchange (MHC class I binding score, peptide exchange yield) of 167 (KVLEVTEEFGV; listed as Homo sapiens) [compound 167] only.
stdout: “+++” (≥50 = +++)

stdin: Answer with the recorded Peptide exchange (MHC class I binding score, peptide exchange yield) of 308 (SQYSGQLHEV; listed as Homo sapiens) [compound 308] only.
stdout: “+++” (≥50 = +++)

stdin: Answer with the recorded Peptide exchange (MHC class I binding score, peptide exchange yield) of 556 (FLTDLEDLTL; listed as Homo sapiens) [compound 556] only.
stdout: “+++” (≥50 = +++)

stdin: Answer with the recorded Peptide exchange (MHC class I binding score, peptide exchange yield) of 226 (MLYVVPIYL; listed as Homo sapiens) [compound 226] only.
stdout: “++” (≥20% = ++)

stdin: Answer with the recorded Peptide exchange (MHC class I binding score, peptide exchange yield) of 506 (KLLGKVETA; listed as Homo sapiens) [compound 506] only.
stdout: “+++” (≥50 = +++)

stdin: Answer with the recorded Peptide exchange (MHC class I binding score, peptide exchange yield) of 44 (ILDPISSGFLL; listed as Homo sapiens) [compound 44] only.
stdout: “++” (≥20% = ++)

stdin: Answer with the recorded Peptide exchange (MHC class I binding score, peptide exchange yield) of 296 (FMEGAIIYV; listed as Homo sapiens) [compound 296] only.
stdout: “+++” (≥50 = +++)

stdin: Answer with the recorded Peptide exchange (MHC class I binding score, peptide exchange yield) of 597 (KLLEGQVIQL; listed as Homo sapiens) [compound 597] only.
stdout: “+++” (≥50 = +++)

stdin: Answer with the recorded Peptide exchange (MHC class I binding score, peptide exchange yield) of 175 (YLFENISQL; listed as Homo sapiens) [compound 175] only.
stdout: “+++” (≥50 = +++)

stdin: Answer with the recorded Peptide exchange (MHC class I binding score, peptide exchange yield) of 289 (VLLEIEDLQV; listed as Homo sapiens) [compound 289] only.
stdout: “++++” (≥75% = ++++)

---

Molecular target: HLA-A*02:01 (Homo sapiens, UniProt P04439, D140Y/D185E/D98H/E176V/E277Q/G131W/G231S/I119V/I121R/I166T/I218V/L300P/L318F/N151K/N90K/P208A/P217A/Q86G/Q94H/R138H/R169H/T345S)
Assay: MHC binding assay (UV-ligand exchange, ELISA of exchange yield)
Conditions: binding to HLA-A*02:01, UV-ligand exchange
Excerpt: Candidate peptides for T cell based therapies according to the present invention were further tested for their MHC binding capacity (affinity). The individual peptide-MHC complexes were produced by UV-ligand exchange, where a UV-sensitive peptide is cleaved upon UV-irradiation, and exchanged with the peptide of interest as analyzed. Only peptide candidates that can effectively bind and stabilize the peptide-receptive MHC molecules prevent dissociation of the MHC complexes. […]
metric-name: Peptide exchange (MHC class I binding score, peptide exchange yield)

Observe how each entry below is paired with its result.
[
  {
    "substance": "359 (YLLPESVDL; listed as Homo sapiens) [compound 359]",
    "endpoint-value": "“+++” (≥50 = +++)"
  },
  {
    "substance": "102 (YLFESEGLVL; listed as Homo sapiens) [compound 102]",
    "endpoint-value": "“+++” (≥50 = +++)"
  },
  {
    "substance": "50 (SLSELEALM; listed as Homo sapiens) [compound 50]",
    "endpoint-value": "“+++” (≥50 = +++)"
  },
  {
    "substance": "578 (FLDPGGPMMKL; listed as Homo sapiens) [compound 578]",
    "endpoint-value": "“+++” (≥50 = +++)"
  },
  {
    "substance": "363 (KVLDVSDLESV; listed as Homo sapiens) [compound 363]",
    "endpoint-value": "“++” (≥20% = ++)"
  },
  {
    "substance": "635 (SLDSTLHAV; listed as Homo sapiens) [compound 635]",
    "endpoint-value": "“+++” (≥50 = +++)"
  }
]

stdin: Answer with the recorded Peptide exchange (MHC class I binding score, peptide exchange yield) of 513 (SLWPSPEQL; listed as Homo sapiens) [compound 513] only.
stdout: “++” (≥20% = ++)

stdin: Answer with the recorded Peptide exchange (MHC class I binding score, peptide exchange yield) of 14 (AAYGGLNEKSFV; listed as Homo sapiens) [compound 14] only.
stdout: “+++” (≥50 = +++)

stdin: Answer with the recorded Peptide exchange (MHC class I binding score, peptide exchange yield) of 179 (KVLNELYTV; listed as Homo sapiens) [compound 179] only.
stdout: “+++” (≥50 = +++)
